biological target: JAK2 (Homo sapiens, UniProt O60674)
Sequence (O60674 whole entry): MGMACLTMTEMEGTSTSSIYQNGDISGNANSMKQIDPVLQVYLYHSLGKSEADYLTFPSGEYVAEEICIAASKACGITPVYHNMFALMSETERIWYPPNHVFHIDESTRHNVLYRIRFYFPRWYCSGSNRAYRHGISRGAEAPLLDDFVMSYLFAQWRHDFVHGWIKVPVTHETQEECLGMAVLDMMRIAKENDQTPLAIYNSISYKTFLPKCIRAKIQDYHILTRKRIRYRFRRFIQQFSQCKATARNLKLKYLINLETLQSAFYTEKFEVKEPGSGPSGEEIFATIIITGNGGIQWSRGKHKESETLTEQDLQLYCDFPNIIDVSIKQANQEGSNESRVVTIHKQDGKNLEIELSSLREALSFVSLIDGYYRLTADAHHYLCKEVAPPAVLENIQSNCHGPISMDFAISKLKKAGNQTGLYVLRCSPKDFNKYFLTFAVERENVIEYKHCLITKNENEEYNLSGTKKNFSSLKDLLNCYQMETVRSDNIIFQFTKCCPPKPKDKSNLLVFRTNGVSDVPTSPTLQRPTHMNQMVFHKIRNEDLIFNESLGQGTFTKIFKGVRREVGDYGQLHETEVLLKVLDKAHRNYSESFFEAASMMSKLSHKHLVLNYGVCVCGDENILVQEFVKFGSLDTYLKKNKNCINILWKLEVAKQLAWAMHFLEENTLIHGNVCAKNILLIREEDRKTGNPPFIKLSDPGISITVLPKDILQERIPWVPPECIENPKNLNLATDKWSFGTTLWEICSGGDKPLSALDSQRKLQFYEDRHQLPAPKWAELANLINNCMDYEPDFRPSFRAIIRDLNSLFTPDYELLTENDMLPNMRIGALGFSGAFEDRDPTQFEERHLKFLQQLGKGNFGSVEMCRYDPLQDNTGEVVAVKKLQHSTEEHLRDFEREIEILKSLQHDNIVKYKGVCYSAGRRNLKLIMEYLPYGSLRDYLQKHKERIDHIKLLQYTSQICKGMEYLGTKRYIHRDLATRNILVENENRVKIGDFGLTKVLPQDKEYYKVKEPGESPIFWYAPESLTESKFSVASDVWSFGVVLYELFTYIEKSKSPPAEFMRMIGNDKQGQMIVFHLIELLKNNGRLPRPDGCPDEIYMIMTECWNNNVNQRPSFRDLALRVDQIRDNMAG
pIC50: −log10 of the molar value.

compound_string: NS(=O)(=O)c1cccc2c1C(=O)c1cccc(O)c1C2=O
pIC50: < 4.00

----------
Target chain: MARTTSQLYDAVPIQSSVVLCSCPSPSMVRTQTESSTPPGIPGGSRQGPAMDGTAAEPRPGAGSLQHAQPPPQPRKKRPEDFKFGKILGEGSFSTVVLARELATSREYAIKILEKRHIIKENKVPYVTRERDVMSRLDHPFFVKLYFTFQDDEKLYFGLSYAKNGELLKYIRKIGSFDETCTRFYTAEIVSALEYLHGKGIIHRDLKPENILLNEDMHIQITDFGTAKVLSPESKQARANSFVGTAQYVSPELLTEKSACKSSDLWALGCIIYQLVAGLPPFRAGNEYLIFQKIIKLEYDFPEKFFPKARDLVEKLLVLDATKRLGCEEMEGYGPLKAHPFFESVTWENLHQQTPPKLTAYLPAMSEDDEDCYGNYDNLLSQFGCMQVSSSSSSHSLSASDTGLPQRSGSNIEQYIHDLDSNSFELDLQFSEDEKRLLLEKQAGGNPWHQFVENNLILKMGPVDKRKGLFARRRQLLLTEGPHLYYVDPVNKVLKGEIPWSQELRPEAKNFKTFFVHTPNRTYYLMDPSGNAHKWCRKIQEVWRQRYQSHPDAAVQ
pIC50: −log10 of the molar value.
experimental_readout: pIC50

compound_string: NS(=O)(=O)c1cccc2c1C(=O)c1cccc(O)c1C2=O
test_value: ≤ 4.11

----------
target: Bmx (Homo sapiens, UniProt P51813)
Sequence (P51813 whole entry): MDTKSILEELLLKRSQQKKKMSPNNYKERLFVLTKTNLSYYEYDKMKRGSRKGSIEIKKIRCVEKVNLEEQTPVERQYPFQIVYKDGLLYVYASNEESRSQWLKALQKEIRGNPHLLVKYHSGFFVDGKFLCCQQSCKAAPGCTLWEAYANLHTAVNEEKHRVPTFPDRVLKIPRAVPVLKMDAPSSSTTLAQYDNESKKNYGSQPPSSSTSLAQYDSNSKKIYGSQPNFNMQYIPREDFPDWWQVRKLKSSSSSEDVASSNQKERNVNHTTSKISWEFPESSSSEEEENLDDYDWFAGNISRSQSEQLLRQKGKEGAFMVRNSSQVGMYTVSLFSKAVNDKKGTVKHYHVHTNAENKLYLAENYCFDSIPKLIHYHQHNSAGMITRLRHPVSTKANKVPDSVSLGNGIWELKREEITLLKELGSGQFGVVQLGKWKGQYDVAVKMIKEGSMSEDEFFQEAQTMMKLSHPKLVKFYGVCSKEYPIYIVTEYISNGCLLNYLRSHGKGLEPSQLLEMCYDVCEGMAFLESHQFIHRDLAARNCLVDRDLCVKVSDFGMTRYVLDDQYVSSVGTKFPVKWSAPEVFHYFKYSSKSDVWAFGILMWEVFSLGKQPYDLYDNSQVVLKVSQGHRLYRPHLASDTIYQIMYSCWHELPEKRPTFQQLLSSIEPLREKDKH

compound_string: NS(=O)(=O)c1cccc2c1C(=O)c1cccc(O)c1C2=O
IC50: > 100 µM

----------
molecular target: Yes (Homo sapiens)

compound_string: NS(=O)(=O)c1cccc2c1C(=O)c1cccc(O)c1C2=O
IC50: > 100 µM

----------
biological target: Fyn (Homo sapiens)
experimental_readout: IC50

compound_string: NS(=O)(=O)c1cccc2c1C(=O)c1cccc(O)c1C2=O
test_value: > 100 µM

----------
target: c-Raf (Homo sapiens)
Sequence (P04049 whole entry): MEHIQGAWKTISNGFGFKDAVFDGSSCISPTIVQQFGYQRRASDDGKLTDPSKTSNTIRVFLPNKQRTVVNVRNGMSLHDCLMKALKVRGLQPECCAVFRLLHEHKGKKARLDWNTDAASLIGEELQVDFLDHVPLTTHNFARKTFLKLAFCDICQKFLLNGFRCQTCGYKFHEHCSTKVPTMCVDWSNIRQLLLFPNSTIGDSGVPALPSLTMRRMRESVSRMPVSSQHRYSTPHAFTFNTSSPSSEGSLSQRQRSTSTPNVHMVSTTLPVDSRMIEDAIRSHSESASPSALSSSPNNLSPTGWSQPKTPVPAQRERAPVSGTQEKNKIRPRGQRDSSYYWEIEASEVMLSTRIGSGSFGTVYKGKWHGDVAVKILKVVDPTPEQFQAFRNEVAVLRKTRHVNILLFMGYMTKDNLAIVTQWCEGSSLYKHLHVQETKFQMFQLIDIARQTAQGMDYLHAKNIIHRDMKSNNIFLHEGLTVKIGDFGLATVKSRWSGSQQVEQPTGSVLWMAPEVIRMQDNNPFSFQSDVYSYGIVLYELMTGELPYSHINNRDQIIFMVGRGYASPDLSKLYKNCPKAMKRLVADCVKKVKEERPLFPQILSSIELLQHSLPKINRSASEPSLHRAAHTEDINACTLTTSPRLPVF

compound_string: NS(=O)(=O)c1cccc2c1C(=O)c1cccc(O)c1C2=O
IC50: ≥ 77.9 µM

----------
biological target: PYK2 (Homo sapiens, UniProt Q14289)
pIC50: −log10 of the molar value.
experimental_readout: pIC50

compound_string: NS(=O)(=O)c1cccc2c1C(=O)c1cccc(O)c1C2=O
tgt: PYK2 (Homo sapiens, UniProt Q14289)
test_value: < 4.00

----------
biological target: ErB2/HER2 (Homo sapiens); settings: read-out: IC50 on ErB2/HER2; bound stated jointly for the other protein kinases; Table S3
Sequence (P04626 23-1255): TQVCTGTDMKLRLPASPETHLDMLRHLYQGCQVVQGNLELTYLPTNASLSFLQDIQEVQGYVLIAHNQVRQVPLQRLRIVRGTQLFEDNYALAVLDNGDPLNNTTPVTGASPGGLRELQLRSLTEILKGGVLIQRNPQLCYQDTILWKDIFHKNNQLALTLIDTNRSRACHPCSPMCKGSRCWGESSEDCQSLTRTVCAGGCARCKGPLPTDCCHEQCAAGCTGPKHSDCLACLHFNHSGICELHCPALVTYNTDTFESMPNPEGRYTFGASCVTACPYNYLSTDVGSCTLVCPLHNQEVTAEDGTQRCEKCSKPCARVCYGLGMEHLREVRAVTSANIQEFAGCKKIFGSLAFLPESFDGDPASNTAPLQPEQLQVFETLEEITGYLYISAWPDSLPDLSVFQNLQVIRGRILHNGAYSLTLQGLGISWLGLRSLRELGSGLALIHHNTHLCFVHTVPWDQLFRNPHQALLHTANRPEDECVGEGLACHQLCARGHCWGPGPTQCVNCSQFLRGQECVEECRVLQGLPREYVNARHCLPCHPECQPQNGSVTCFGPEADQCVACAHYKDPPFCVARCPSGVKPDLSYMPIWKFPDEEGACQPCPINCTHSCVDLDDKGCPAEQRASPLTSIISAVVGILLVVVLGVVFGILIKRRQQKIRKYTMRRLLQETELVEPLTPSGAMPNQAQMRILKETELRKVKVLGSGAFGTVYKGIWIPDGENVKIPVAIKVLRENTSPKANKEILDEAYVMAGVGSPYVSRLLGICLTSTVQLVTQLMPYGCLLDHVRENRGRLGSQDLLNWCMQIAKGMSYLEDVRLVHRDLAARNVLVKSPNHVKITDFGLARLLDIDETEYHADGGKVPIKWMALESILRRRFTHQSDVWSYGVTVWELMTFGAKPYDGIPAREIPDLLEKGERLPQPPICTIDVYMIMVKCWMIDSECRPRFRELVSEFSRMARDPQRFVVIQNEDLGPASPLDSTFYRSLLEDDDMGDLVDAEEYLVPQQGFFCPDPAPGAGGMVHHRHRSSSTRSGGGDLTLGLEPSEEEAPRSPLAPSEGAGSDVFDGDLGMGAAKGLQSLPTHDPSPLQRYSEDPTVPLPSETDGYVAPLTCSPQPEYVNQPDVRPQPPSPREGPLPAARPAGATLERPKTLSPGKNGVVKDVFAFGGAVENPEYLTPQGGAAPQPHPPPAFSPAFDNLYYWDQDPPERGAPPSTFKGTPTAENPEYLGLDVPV

compound: NS(=O)(=O)c1cccc2c1C(=O)c1cccc(O)c1C2=O [LLL12]
IC50: ≥ 77.9 µM

----------
target: AKT1 (Homo sapiens); test: Kinase profiler assay, AKT1; format: biochemical; details: bound stated jointly for the other protein kinases; Table S3
Sequence (P31749 whole entry): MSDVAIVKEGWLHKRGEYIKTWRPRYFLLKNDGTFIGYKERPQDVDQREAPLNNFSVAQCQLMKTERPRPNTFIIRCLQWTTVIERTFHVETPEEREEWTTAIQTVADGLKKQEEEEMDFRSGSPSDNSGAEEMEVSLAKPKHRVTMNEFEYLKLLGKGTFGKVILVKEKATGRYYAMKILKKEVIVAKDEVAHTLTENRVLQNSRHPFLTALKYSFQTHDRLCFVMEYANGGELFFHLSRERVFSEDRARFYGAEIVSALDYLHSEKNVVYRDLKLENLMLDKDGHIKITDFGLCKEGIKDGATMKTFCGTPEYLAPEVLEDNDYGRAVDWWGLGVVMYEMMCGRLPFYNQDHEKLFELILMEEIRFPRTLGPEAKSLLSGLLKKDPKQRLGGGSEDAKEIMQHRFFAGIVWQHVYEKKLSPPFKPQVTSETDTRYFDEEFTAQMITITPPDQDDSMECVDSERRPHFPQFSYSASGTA
pIC50: −log10 of the molar value.

compound: NS(=O)(=O)c1cccc2c1C(=O)c1cccc(O)c1C2=O [LLL12]
pIC50: ≤ 4.11

----------
target: c-SRC (Homo sapiens)
Sequence (P12931 whole entry): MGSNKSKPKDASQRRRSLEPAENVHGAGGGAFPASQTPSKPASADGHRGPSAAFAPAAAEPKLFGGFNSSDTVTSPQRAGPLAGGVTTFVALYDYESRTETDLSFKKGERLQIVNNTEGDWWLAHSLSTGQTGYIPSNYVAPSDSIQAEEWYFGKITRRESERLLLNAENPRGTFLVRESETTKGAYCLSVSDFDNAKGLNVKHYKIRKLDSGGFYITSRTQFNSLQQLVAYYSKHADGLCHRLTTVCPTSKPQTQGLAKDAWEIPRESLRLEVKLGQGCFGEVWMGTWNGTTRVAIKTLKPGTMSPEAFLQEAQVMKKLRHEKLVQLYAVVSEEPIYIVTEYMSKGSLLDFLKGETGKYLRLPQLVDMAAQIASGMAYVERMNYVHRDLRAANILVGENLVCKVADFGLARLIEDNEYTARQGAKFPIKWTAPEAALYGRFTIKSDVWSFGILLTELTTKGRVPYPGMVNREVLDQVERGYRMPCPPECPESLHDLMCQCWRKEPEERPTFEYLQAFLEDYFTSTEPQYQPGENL
experimental_readout: IC50

compound_string: NS(=O)(=O)c1cccc2c1C(=O)c1cccc(O)c1C2=O
test_value: > 100 µM

----------
target: Syk (Homo sapiens, UniProt P43405)

compound: NS(=O)(=O)c1cccc2c1C(=O)c1cccc(O)c1C2=O [LLL12]
tgt: Syk (Homo sapiens, UniProt P43405)
IC50: > 100 µM
